Reported Kd values for the following variants.
B1: scFv; the commonest letter at each place (parent)
chain 1: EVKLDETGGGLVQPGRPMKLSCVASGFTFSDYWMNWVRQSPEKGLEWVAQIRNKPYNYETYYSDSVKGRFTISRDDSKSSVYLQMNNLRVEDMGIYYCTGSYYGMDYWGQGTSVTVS
chain 2: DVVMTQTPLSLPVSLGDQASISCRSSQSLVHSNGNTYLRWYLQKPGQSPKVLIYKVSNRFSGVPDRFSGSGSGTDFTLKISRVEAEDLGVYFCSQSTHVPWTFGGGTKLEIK

Variants of: B1
Assay: Kd (Tite-Seq)
Conditions: with fluorescein; format: scFv 4-4-20, heavy + light

| Mutation Spec | Kd |
| --- | --- |
| chain 1 S101Y Y102G | ≥ 10 µM |
| chain 1 Y32G W33N | ≥ 10 µM |
| chain 1 Y107S W108S | ≥ 10 µM |
| chain 1 F29C S30C | ≥ 10 µM |
| chain 1 T28F F29W V37K | ≥ 10 µM |
| chain 1 S101Q Y103L D106G | ≥ 10 µM |
| chain 1 Y32I W36G | ≥ 10 µM |
| chain 1 Y102W | 0.00361 µM |

Dear colleague, I am looking for the recorded Kd of the following variant: chain 1 G104Y G109R
0.021 µM

And for chain 1 D106T W108Q ?
≥ 10 µM

Also, chain 1 G100N G109H please.
≥ 10 µM

Next variant up: chain 1 Y32M W36D
≥ 10 µM

Now this one: chain 1 G104S Y107G
≥ 10 µM

Now consider chain 1 D31S Y32W .
≥ 10 µM

Lookup chain 1 G100C G104I
≥ 10 µM

One more variant: chain 1 F29D V37A
≥ 10 µM

Next: chain 1 D31A V37E
≥ 10 µM

Entry to check: chain 1 F29W W33S
≥ 10 µM

Here is the next variant: chain 1 D106E
0.0221 µM

Please do the same for chain 1 S101T Y102H as well.
≥ 10 µM

Let us now turn to chain 1 M34F W36M
0.0562 µM

One more variant: chain 1 S101C D106I G109A
≥ 10 µM

Same read-out for chain 1 Y107F W108E ?
≥ 10 µM
